System: intestinal alkaline phosphatase [Mus musculus]
Assay: mouse intestinal phosphatase enzyme activation – biochemical, luminescence, single concentration, confirmation (AID 434970)
Details: purified mouse IAP, CDP-Star luminescence, 30 min, at 10 µM; measured here: IAP activation factor, stronger effect = higher value
Hit rate of the full screen: of about 11,000 compounds, about 310 (2.8%) were called active. The full list was thinned out, with actives kept by preference.
Overview of recorded activation factor for various compounds
Write the value as a bare number.

Cc1ccc(C)c(N(C(=O)CCC(=O)Nc2cc(C)on2)C(C(=O)NC2CCCC2)c2ccco2)c1 (stereo not drawn) = 0.998

Please report the recorded activation factor for COc1cc2c3c(c1)C1(C(=O)N3C(C)(C)C=C2C)C(C#N)=C(N)Oc2cc(O)ccc21 (stereo not drawn) .
1

Please report the recorded activation factor for O=C(NCC(=O)N(c1ccccc1)C(C(=O)NC1CCCCC1)c1ccncc1)c1ccco1 (stereo not drawn) .
1.01

###

Overview of recorded activity change, negative = activation for various compounds
Tested on: intestinal alkaline phosphatase [Mus musculus]
Assay: mouse intestinal phosphatase enzyme activation – biochemical, luminescence, single concentration, confirmation (AID 434970)
Details: purified mouse IAP, CDP-Star luminescence, 30 min, at 10 µM; stronger effect = lower value
Screen size: about 11,000 compounds; about 310 (2.8%) were called active. The full list was thinned out, with actives kept by preference.
Could you give me the number in %? Just the number is fine.

COc1cc2c(c(OC)c1OC)C(c1ccccc1C)CC(=O)O2 (stereo unspecified) = -6.55

Please report the recorded activity change, negative = activation for `CCN(CC)c1nc(N)c2c(N)n(-c3ccccc3C)c(=S)c(C#N)c2c1C#N` .
17.8

Please report the recorded activity change, negative = activation for `CCOC(=O)c1ccc(NC(=O)c2ccc3c(c2)OCO3)cc1` .
4.1

Please report the recorded activity change, negative = activation for `COc1cc(-c2nnc3sc(Cc4ccccc4)nn23)cc(OC)c1OC` .
5.85

Please report the recorded activity change, negative = activation for COc1ccc(C(c2nnnn2Cc2cccs2)N2CCN(c3ccc(F)cc3)CC2)cc1OC (stereo unspecified) .
1.5

###

System: intestinal alkaline phosphatase [Mus musculus]
Experiment: mouse intestinal phosphatase enzyme activation – biochemical, luminescence, single concentration, confirmation (AID 434970)
Conditions: purified mouse IAP, CDP-Star luminescence, 30 min, at 10 µM; measured here: IAP activation factor, stronger effect = higher value
The whole screen tested about 11,000 compounds, of which about 310 (2.8%) were called active. What follows is part of a selection rich in actives, with near analogues and random picks from the rest.
propertyLabel: activation factor

Reference set (2 entries):
COC(=O)c1sccc1NC(=O)C1CC=CCC1C(=O)O (stereo not drawn) = 0.998
COc1cc(-c2nnc3n2N=C(c2ccccc2)CS3)cc(OC)c1OC = 0.996

Please report the recorded activation factor for `COc1ccccc1CNC(=O)CCCOc1cc(=O)n(C)c2ccccc12` .
0.997

Please report the recorded activation factor for `COc1cc(NC(=S)NCCC(c2ccccc2)c2ccccc2)cc(OC)c1` .
3.28

Please report the recorded activation factor for COc1ccc(C2=NOC(Cn3nc(-c4ccccc4)cc3C(=O)NCc3cccc(C(F)(F)F)c3)C2)cc1 (stereo not drawn) .
1.83

Please report the recorded activation factor for `Cc1nc(CC(=O)Nc2nc(-c3ccccc3)cs2)cs1` .
0.961

Please report the recorded activation factor for `S=C(NCCNCc1ccccc1)NC1CCCCC1` .
1.18

Please report the recorded activation factor for `CC(C)=CCC/C(C)=C/CNC(=O)C[C@H]1C[C@H](C(=O)N(C(C)C)C(C)C)[C@@]2(C)c3[nH]c4cc(-c5ccco5)ccc4c3CCN2C1=O` .
1.39

Please report the recorded activation factor for COc1ccc(C2=NOC(Cn3nc(-c4ccccc4)cc3C(=O)NCc3ccccc3OC)C2)cc1 (stereo not drawn) .
1.68

Please report the recorded activation factor for `Cn1c(C(=O)NCc2ccccc2)cc2oc3ccccc3c21` .
1.14

Please report the recorded activation factor for `N#Cc1ccc(NC(=O)Nc2ccc(Cl)cc2)cc1` .
1.73

###

Test system: intestinal alkaline phosphatase [Mus musculus]
Assay: mouse intestinal phosphatase enzyme activation – biochemical, luminescence, single concentration, confirmation (AID 434970)
Details: purified mouse IAP, CDP-Star luminescence, 30 min, at 10 µM; measured here: IAP activation factor, stronger effect = higher value
About 310 (2.8%) of roughly 11,000 compounds were called active. The sample as a whole holds a higher share of actives than the screen did.
Please enter y where activation factor is greater than or equal to 1, and n where it is lower.

COc1cccc(NC(=O)NCCCSC2CCCCC2)c1 = y
CCC1CCCCN1CCCNC(=O)CNC(=O)Cn1ccc2ccccc2c1=O (stereo not drawn) = n
CCOC(=O)c1ccc(NC(=O)CSc2nnc(C3CCCCC3)n2C)cc1 = n

Identify whether the reported activation factor of the following compound is 1 or greater: `C#CCOCCOCCOCCNc1nc(N2CCN(C(=O)CCCCCCCCCCNC(=O)[C@H]([C@@H](C)CC)n3cc(CCCCCN)nn3)CC2)nc(N2CCN(C(=O)CCCCCCCCCCNC(=O)[C@H]([C@@H](C)CC)n3cc(CCCCN=C(N)N)nn3)CC2)n1`
y

Identify whether the reported activation factor of the following compound is 1 or greater: CC(=O)c1cccc(NC(=O)NC(C)C2CCCO2)c1 (stereo not drawn)
y

Identify whether the reported activation factor of the following compound is 1 or greater: `CCOC(=O)N1CCN(C(=O)c2ccc3c(=O)n(CCC4=CCCCC4)c(=O)[nH]c3c2)CC1`
n

Identify whether the reported activation factor of the following compound is 1 or greater: CCC1CCC(NC(=O)Nc2cccc(OC)c2)CC1 (stereo not drawn)
y

Identify whether the reported activation factor of the following compound is 1 or greater: CCC(C)NC(=O)Nc1ccc2c(c1)N(C)C(=O)c1ccccc1S2 (stereo not drawn)
y

Identify whether the reported activation factor of the following compound is 1 or greater: `CC(=O)c1ccc2c(c1)N(C)c1ccccc1S2`
n

Identify whether the reported activation factor of the following compound is 1 or greater: `CN(C)CCCNC(=O)C[C@H]1C[C@H](C(=O)N2CCCCC2)[C@@]2(CCc3ccccc3)c3[nH]c4cc(-c5ccco5)ccc4c3CCN2C1=O`
y

Identify whether the reported activation factor of the following compound is 1 or greater: `CC[C@H](C)[C@@H](C(=O)NCCCCCCCCCCC(=O)N1CCN(C(=O)OC(C)(C)C)CC1)n1cc(CCCCN=C(NC(=O)OC(C)(C)C)NC(=O)OC(C)(C)C)nn1`
y

Identify whether the reported activation factor of the following compound is 1 or greater: `CNC(=O)/C(C#N)=C/c1ccc(-c2ccc(OC)cc2[N+](=O)[O-])o1`
n

Identify whether the reported activation factor of the following compound is 1 or greater: `CC(C)(C)OC(=O)CC[C@@H](C(=O)NCCCCCCCCCCC(=O)N1CCN(C(=O)OC(C)(C)C)CC1)n1cc(CCCCCNC(=O)OC(C)(C)C)nn1`
y

Identify whether the reported activation factor of the following compound is 1 or greater: `Cc1ccc(NC(=O)NCC2CCN(Cc3cc(C)ccc3Cl)CC2)c(C)c1`
y

###

System: intestinal alkaline phosphatase [Mus musculus]
Experiment: mouse intestinal phosphatase enzyme activation – biochemical, luminescence, single concentration, confirmation (AID 434970)
Conditions: purified mouse IAP, CDP-Star luminescence, 30 min, at 10 µM; stronger effect = lower value
Out of some 11,000 compounds screened, about 310 (2.8%) were called active. Only a selection was taken, and actives are over-represented in it overall.
propertyLabel: activity change, negative = activation (%)
Could you give me the number in %? Just the number is fine.

Reference set (3 entries):
O=P(OC1CCS(=O)(=O)C1)(c1ccccc1)c1ccccc1 (centres undefined) = 7.85
CC[C@]12c3[nH]c4cc(CCC(=O)N(C)C)ccc4c3CCN1C(=O)[C@@H](CC(=O)NCCCN(C)C)C[C@@H]2C(=O)N1CCN(C(=O)C2CC2)CC1 = -4.6
CCOc1ccc2nc(NC(=O)Nc3ccccc3)sc2c1 = -3.8

In the following, a different molecule is considered.
Recall the recorded activity change, negative = activation for COc1ccc(C2=NOC(Cn3nc(-c4ccccc4)cc3C(=O)NCc3ccc(C)cc3)C2)cc1 (centres undefined) with intestinal alkaline phosphatase [Mus musculus] and state it.
-57.5

###

System: intestinal alkaline phosphatase [Mus musculus]
Experiment: mouse intestinal phosphatase enzyme activation – biochemical, luminescence, single concentration, confirmation (AID 434970)
Conditions: purified mouse IAP, CDP-Star luminescence, 30 min, at 10 µM; measured here: IAP activation factor, stronger effect = higher value
Hit rate of the full screen: of about 11,000 compounds, about 310 (2.8%) were called active. Only a selection was taken, and actives are over-represented in it overall.
Overview of recorded activation factor for various molecules
Write the value as a bare number.

Reference set (3 entries):
Cc1ccc(NC(=O)C2CC(=O)n3c(nc4ccccc43)N2)cc1Cl (stereo not drawn) = 2.25
CCOC(=O)c1ccc(NC(=S)NCCc2ccccc2F)cc1 = 1.3
C#CCOCCOCCOCCNc1nc(N2CCN(C(=O)CCCCCCCCCCNC(=O)[C@H]([C@@H](C)CC)n3cc(CCCCN=C(N)N)nn3)CC2)nc(N2CCN(C(=O)CCCCCCCCCCNC(=O)[C@H]([C@@H](C)CC)n3cc(CCCCN=C(N)N)nn3)CC2)n1 = 22.7

Please report the recorded activation factor for O=C(CC(Nc1ccc(F)cc1)C(=O)O)c1ccccc1 (stereo not drawn) .
0.959

Please report the recorded activation factor for `COc1ccc(COC(=O)Nc2cc3c(C(F)(F)F)nn(C)c3s2)cc1` .
1.23

Please report the recorded activation factor for `Cc1oc(S(=O)(=O)N2CCCCC2)cc1NC(=O)Nc1ccc(Cl)cc1` .
1.42

Please report the recorded activation factor for `CC(=O)c1cccc(NC(=O)CCNS(=O)(=O)c2cccc(C(C)=O)c2)c1` .
0.929

Please report the recorded activation factor for `Clc1ccc2nc(C3CCN(Cc4nnnn4C4CCCCC4)CC3)[nH]c2c1` .
1.15
